Test: Solubility evaluation of PEA and SPE in water and ethanol with emulsifiers (tests A-H)
Assay type: physicochemical
Settings: ethanol, organic solvent or mixture, thermodynamic from solid; test G: 32 mg PEA, EtOH q.s. to 2 g; read-out: solubility of PEA in ethanol
ASSAY ENDPOINT: solubility (mg/mL)

molecule="CCCCCCCCCCCCCCCC(=O)NCCO [PEA, N-(2-hydroxyethyl)hexadecanamide]" measured_value=16

====

Test: Solubility evaluation of PEA and SPE in water and ethanol with emulsifiers (tests A-H)
Type: physicochemical
Details: water, thermodynamic from solid; test A: 50 mg SPE, H2O q.s. to 1 g; read-out: solubility of SPE in water
ASSAY ENDPOINT: solubility (mg/mL)

molecule="NCCCCNCCCN [SPE, N-(3-aminopropyl)butane-1,4-diamine·3HCl]" unit_label=mg/mL measured_value=50
